Reference source for all entries: ChEMBL document CHEMBL1138514

- tested.on: ATP-dependent translocase ABCB1 (Homo sapiens, UniProt P08183)
- Sequence (P08183 whole entry): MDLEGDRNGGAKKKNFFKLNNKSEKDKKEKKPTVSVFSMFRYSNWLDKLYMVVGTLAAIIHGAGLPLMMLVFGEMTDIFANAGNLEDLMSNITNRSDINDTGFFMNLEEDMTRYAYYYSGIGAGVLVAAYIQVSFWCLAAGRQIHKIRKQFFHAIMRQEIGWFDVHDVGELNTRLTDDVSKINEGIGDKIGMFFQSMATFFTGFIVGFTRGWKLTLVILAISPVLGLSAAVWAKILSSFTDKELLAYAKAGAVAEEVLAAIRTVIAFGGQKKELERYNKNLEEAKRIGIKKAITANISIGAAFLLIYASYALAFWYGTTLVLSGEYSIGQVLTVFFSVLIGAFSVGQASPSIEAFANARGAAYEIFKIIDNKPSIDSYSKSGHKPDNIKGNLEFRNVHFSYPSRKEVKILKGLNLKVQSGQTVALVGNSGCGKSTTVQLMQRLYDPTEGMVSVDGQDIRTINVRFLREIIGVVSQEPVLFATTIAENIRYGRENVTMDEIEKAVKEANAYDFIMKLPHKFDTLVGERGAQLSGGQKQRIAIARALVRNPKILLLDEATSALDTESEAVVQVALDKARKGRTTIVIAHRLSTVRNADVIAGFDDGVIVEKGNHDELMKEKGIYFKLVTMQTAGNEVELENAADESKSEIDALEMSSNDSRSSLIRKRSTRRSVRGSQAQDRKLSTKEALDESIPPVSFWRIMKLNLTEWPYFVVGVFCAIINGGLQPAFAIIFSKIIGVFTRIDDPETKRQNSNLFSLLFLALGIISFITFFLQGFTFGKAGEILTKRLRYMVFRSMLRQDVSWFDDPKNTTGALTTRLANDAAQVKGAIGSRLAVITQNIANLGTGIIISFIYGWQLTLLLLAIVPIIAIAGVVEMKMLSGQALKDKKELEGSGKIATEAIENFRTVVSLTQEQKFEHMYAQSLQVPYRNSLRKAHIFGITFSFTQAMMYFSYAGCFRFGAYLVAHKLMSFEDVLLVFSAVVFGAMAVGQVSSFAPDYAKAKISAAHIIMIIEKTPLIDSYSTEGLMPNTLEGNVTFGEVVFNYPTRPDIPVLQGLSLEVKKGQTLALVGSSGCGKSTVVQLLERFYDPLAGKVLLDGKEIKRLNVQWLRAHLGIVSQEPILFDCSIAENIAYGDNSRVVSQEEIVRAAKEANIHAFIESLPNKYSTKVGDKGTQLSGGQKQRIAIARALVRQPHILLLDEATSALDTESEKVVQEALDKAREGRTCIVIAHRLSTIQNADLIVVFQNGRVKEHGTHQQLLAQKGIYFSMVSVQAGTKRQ
- assay.name: Inhibition of verapamil-stimulated ATPase activity of human histidine10-tagged MDR1 expressed in BHK cells
Item-by-item account of IC50
quantity: IC50 (µM)

>>> recorded_number("CN(C)c1ccc(-c2c3ccc(=[N+](C)C)cc-3[se]c3c4c5c(cc23)CCCN5CCC4)cc1")
6.8
>>> recorded_number("CN(C)c1cccc(-c2c3ccc(=[N+](C)C)cc-3[se]c3c4c5c(cc23)CCCN5CCC4)c1")
23.6
>>> recorded_number("C[N+](C)=c1ccc2c(-c3ccccc3)c3cc4c5c(c3[se]c-2c1)CCCN5CCC4.F[P-](F)(F)(F)(F)F")
2.3
